These data points were gathered from patent US20260226084A1.

system: HPAF-II cells; experiment: HPAF-II Cell Proliferation Assay; format: cell-based; conditions: Homo sapiens, HPAF-II, HPAF-II cells; Table 2; read-out: Inhibition of cell proliferation in HPAF-II (IC50 class)
Parameter: IC50

>  <Smi>
Cc1ccc(NC(=O)c2cc(C(F)(F)F)cnn2)cc1-c1ccnc(-c2ccnc(NC(=O)C3(C)CC3)c2)c1

>  <Parameter>
IC50

>  <Observed Result>
1000 to 10000 nM

$$$$
>  <Smi>
CC(=O)Nc1cc(-c2cc(-c3cc(NC(=O)c4ccc(C(F)F)nc4)ccc3C)ccn2)ccn1

>  <Parameter>
IC50

>  <Observed Result>
< 100 nM

$$$$
>  <Smi>
Cc1ccc(NC(=O)c2cc(C(C)(F)F)cnn2)cc1-c1ccnc(-c2cncn2C)c1

>  <Parameter>
IC50

>  <Observed Result>
100 to 500 nM

$$$$
>  <Smi>
Cc1ccc(NC(=O)c2cc(C(F)(F)F)cnn2)cc1-c1cc(N[C@H](C)CO)nc(-c2c[nH]nc2N)c1

>  <Parameter>
IC50

>  <Observed Result>
1000 to 10000 nM

$$$$
>  <Smi>
Cc1ccc(NC(=O)c2cc(C(F)(F)F)cnn2)cc1-c1ccnc(-c2ccnc(NC(=O)C(F)(F)F)c2)c1

>  <Parameter>
IC50

>  <Observed Result>
< 100 nM

$$$$
>  <Smi>
CCn1cc(-c2cc(-c3cc(NC(=O)c4cc(C(F)(F)F)cnn4)ccc3C)ccn2)cn1

>  <Parameter>
IC50

>  <Observed Result>
100 to 500 nM

$$$$
>  <Smi>
Cc1ccc(NC(=O)c2cc(C(F)(F)F)cnn2)cc1-c1ccnc(-c2ccnc(NC(C)C)c2)c1

>  <Parameter>
IC50

>  <Observed Result>
100 to 500 nM

$$$$
